Just for reference, PubChem BioAssay AID2060492 is where these values come from.

Tested on: 695427-040-R-J1-PDC complex spheroids, viability percent T/C;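 note: spheroids exposed to compounds for seven days before readout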
Assay: Anticancer human tumor 695427-040-R-J1-PDC patient-derived colon adenocarcinoma cell line growth inhibition [GQUAD]
Details: second compound 0.1 µM; first compound 3.16 µM; hits give low values
Property: viability, T/C (%)
The reply should contain only the number, in %.

Consider the reported viability, T/C for these molecules:
# Molecule, Value Unit, viability, T/C
records = [
    ("CC1COCCN1c1cc(C2(O)CC3CCC(C2)O3)c2cnn(-c3ccn[nH]3)c2n1 (stereo not given) + CN(C)c1ccc(Nc2c3ccc(NC(=O)CCN4CCCC4)cc3nc3cc(NC(=O)CCN4CCCC4)ccc23)cc1", "%", 45.4),
    ("COc1cccc2c1C(=O)c1c(O)c3c(c(O)c1C2=O)CC(O)(C(=O)CO)CC3OC1CC(N)C(O)C(C)O1 (stereo not given) + Cc1[nH]c2ccc(F)cc2c1-c1nc2c3cccnc3c3ncccc3c2[nH]1", "%", 74.4),
    ("C=CCn1c(=O)c2cnc(Nc3ccc(N4CCN(C)CC4)cc3)nc2n1-c1cccc(C(C)(C)O)n1 + Cc1[nH]c2ccc(F)cc2c1-c1nc2c3cccnc3c3ncccc3c2[nH]1", "%", 99.3),
    ("COc1cccc2c1C(=O)c1c(O)c3c(c(O)c1C2=O)CC(O)(C(=O)CO)CC3OC1CC(N)C(O)C(C)O1 (stereo not given) + CN(C)c1ccc(Nc2c3ccc(NC(=O)CCN4CCCC4)cc3nc3cc(NC(=O)CCN4CCCC4)ccc23)cc1", "%", 66.6),
    ("COc1ncnc(C2CC2)c1-c1ncc2cnn(Cc3ccc(-c4nc(C(F)(F)F)cn4C(C)C)cc3)c2n1 + Cc1[nH]c2ccc(F)cc2c1-c1nc2c3cccnc3c3ncccc3c2[nH]1", "%", 100),
]

// query Field request: viability, T/C | item: O=C(NO)c1cnc(N2CCN(S(=O)(=O)c3ccc4ccccc4c3)CC2)nc1 + Cc1[nH]c2ccc(F)cc2c1-c1nc2c3cccnc3c3ncccc3c2[nH]1
// result 81.3

// query Field request: viability, T/C | item: C=CCn1c(=O)c2cnc(Nc3ccc(N4CCN(C)CC4)cc3)nc2n1-c1cccc(C(C)(C)O)n1 + Cc1cnc(CNC(=O)c2c(=O)c3ccc(N4CCCN(C)CC4)nc3n3c2sc2ccccc23)cn1
// result 53.8

// query Field request: viability, T/C | item: CCCS(=O)(=O)Nc1ccc(F)c(C(=O)c2c[nH]c3ncc(-c4ccc(Cl)cc4)cc23)c1F + Cc1[nH]c2ccc(F)cc2c1-c1nc2c3cccnc3c3ncccc3c2[nH]1
// result 70.9

// query Field request: viability, T/C | item: CC(C)(O)C1CCC(Nc2ccc3ncc(-c4cccc(C(F)(F)F)c4)n3n2)CC1 (stereo not given) + CN(C)c1ccc(Nc2c3ccc(NC(=O)CCN4CCCC4)cc3nc3cc(NC(=O)CCN4CCCC4)ccc23)cc1
// result 14.7

// query Field request: viability, T/C | item: CC(=O)O[C@H]1C(=O)[C@@]2(C)[C@H]([C@H](OC(=O)c3ccccc3)[C@]3(O)C[C@H](OC(=O)[C@H](O)[C@@H](NC(=O)c4ccccc4)c4ccccc4)C(C)=C1C3(C)C)[C@]1(OC(C)=O)CO[C@@H]1C[C@@H]2O + Cc1cnc(CNC(=O)c2c(=O)c3ccc(N4CCCN(C)CC4)nc3n3c2sc2ccccc23)cn1
// result 71.8
